Reference source for all entries: patent US10253052B2

- test-summary: In vivo biodistribution in mice
- Set-up: species or system normal CD-1 male mice
- measurement-context: iv, 2 min post injection
metric: Biodistribution: Kidney

1) O=C([O-])CN(CCN(CC(=O)[O-])Cc1cc(CCC(=O)NC(P(=O)(O)O)P(=O)(O)O)ccc1[O-])Cc1cc(CCC(=O)NCC(=O)O)ccc1[O-].[68Ga+3] [[^68Ga]1c] ... 27.7 ± 5.46 % dose/g
2) O=C([O-])CN(CCN(CC(=O)[O-])Cc1cc(CCC(=O)NC(P(=O)(O)O)P(=O)(O)O)ccc1[O-])Cc1cc(CCC(=O)NCCCCCC(=O)NCCCC[C@H](NC(=O)N[C@@H](CCC(=O)O)C(=O)O)C(=O)O)ccc1[O-].[68Ga+3] [[^68Ga]1g] ... 35.3 ± 3.75 % dose/g
3) O=C([O-])CN(CCN(CC(=O)[O-])Cc1cc(CCC(=O)NC(P(=O)(O)O)P(=O)(O)O)ccc1[O-])Cc1cc(CCC(=O)O)ccc1[O-].[68Ga+3] [[^68Ga]1a] ... 31.2 ± 1.92 % dose/g
4) O=C([O-])CN(CCN(CC(=O)[O-])Cc1cc(CCC(=O)NC(P(=O)(O)O)P(=O)(O)O)ccc1[O-])Cc1cc(CCC(=O)NC2C(O)OC(CO)C(O)C2O)ccc1[O-].[68Ga+3] (stereo not drawn) [[^68Ga]1b] ... 18.5 ± 2.45 % dose/g
5) O=C([O-])CN(CCN(CC(=O)[O-])Cc1cc(CCC(=O)NC(P(=O)(O)O)P(=O)(O)O)ccc1[O-])Cc1cc(CCC(=O)NCCCNC(=O)CCc2ccc(O)c(CN(CCN(CC(=O)O)Cc3cc(CCC(=O)NC(P(=O)(O)O)P(=O)(O)O)ccc3O)CC(=O)O)c2)ccc1[O-].[68Ga+3] [[^68Ga]3] ... 12.2 ± 1.51 % dose/g
6) C[C@H](NC(=O)CCc1ccc([O-])c(CN(CCN(CC(=O)[O-])Cc2cc(CCC(=O)NC(P(=O)(O)O)P(=O)(O)O)ccc2[O-])CC(=O)[O-])c1)C(=O)O.[68Ga+3] [[^68Ga]1d] ... 25.3 ± 3.89 % dose/g
7) O=C([O-])CN(CCN(CC(=O)[O-])Cc1cc(CCC(=O)O)ccc1[O-])Cc1cc(CCC(=O)O)ccc1[O-].[68Ga+3] [[^68Ga]HBED-CC, reference compound] ... 27.2 ± 0.64 % dose/g
8) O=C([O-])CN(CCN(CC(=O)[O-])Cc1cc(CCC(=O)N[C@@H](CC(=O)O)C(=O)O)ccc1[O-])Cc1cc(CCC(=O)NC(P(=O)(O)O)P(=O)(O)O)ccc1[O-].[68Ga+3] [[^68Ga]1e] ... 24.8 ± 3.02 % dose/g
9) O=C([O-])CN(CCN(CC(=O)[O-])Cc1cc(CCC(=O)NC(P(=O)(O)O)P(=O)(O)O)ccc1[O-])Cc1cc(CCC(=O)NC(P(=O)(O)O)P(=O)(O)O)ccc1[O-].[68Ga+3] [[^68Ga]2] ... 19.4 ± 1.38 % dose/g

---

- test-summary: In vivo biodistribution in mice
- Parameters: species or system normal CD-1 male mice
- measurement-context: iv, 60 min
metric: bone to muscle ratio

1) O=C([O-])CN(CCN(CC(=O)[O-])Cc1cc(CCC(=O)N[C@@H](CCC(=O)O)C(=O)O)ccc1[O-])Cc1cc(CCC(=O)NC(P(=O)(O)O)P(=O)(O)O)ccc1[O-].[68Ga+3] [[^68Ga]1f] ... 222
2) C[C@H](NC(=O)CCc1ccc([O-])c(CN(CCN(CC(=O)[O-])Cc2cc(CCC(=O)NC(P(=O)(O)O)P(=O)(O)O)ccc2[O-])CC(=O)[O-])c1)C(=O)O.[68Ga+3] [[^68Ga]1d] ... 235
3) O=C([O-])CN(CCN(CC(=O)[O-])Cc1cc(CCC(=O)N[C@@H](CC(=O)O)C(=O)O)ccc1[O-])Cc1cc(CCC(=O)NC(P(=O)(O)O)P(=O)(O)O)ccc1[O-].[68Ga+3] [[^68Ga]1e] ... 258
4) O=C([O-])CN(CCN(CC(=O)[O-])Cc1cc(CCC(=O)NC(P(=O)(O)O)P(=O)(O)O)ccc1[O-])Cc1cc(CCC(=O)NCCCCCC(=O)NCCCC[C@H](NC(=O)N[C@@H](CCC(=O)O)C(=O)O)C(=O)O)ccc1[O-].[68Ga+3] [[^68Ga]1g] ... 74
5) O=C([O-])CN(CCN(CC(=O)[O-])Cc1cc(CCC(=O)NC(P(=O)(O)O)P(=O)(O)O)ccc1[O-])Cc1cc(CCC(=O)NCCNC(=O)CN2CCN(CC(=O)O)CCN(CC(=O)O)CCN(CC(=O)O)CC2)ccc1[O-].[68Ga+3] [[^68Ga]1h] ... 233
6) O=C([O-])CN(CCN(CC(=O)[O-])Cc1cc(CCC(=O)NC(P(=O)(O)O)P(=O)(O)O)ccc1[O-])Cc1cc(CCC(=O)NC2C(O)OC(CO)C(O)C2O)ccc1[O-].[68Ga+3] (stereo not shown) [[^68Ga]1b] ... 147
7) O=C([O-])CN(CCN(CC(=O)[O-])Cc1cc(CCC(=O)O)ccc1[O-])Cc1cc(CCC(=O)O)ccc1[O-].[68Ga+3] [[^68Ga]HBED-CC, reference compound] ... 2.3
